# target_or_system: Serine/threonine-protein kinase Chk2 (Homo sapiens)
# Sequence (O96017 whole entry): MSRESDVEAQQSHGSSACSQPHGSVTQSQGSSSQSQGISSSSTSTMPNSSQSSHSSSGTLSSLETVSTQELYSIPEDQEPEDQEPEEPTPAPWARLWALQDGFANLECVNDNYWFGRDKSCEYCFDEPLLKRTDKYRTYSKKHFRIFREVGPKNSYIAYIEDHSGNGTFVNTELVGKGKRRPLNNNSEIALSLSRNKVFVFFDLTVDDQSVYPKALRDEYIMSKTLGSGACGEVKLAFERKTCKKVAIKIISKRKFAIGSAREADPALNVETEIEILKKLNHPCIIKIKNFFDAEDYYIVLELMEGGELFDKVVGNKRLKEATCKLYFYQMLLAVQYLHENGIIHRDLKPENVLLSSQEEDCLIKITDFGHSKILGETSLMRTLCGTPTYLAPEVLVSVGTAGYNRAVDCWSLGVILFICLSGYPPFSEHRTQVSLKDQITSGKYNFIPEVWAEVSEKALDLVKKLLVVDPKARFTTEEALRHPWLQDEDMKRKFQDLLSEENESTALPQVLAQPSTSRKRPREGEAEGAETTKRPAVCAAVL
pIC50: −log10 of the molar value.
reported_endpoint: pIC50

>  <smiles_representation>
COc1cc(Nc2cnc(C#N)c(O[C@H](C)CN(C)C)n2)ncc1-c1cnn(C)c1

>  <limit_sign>
<

>  <observed>
5.00

$$$$
>  <smiles_representation>
CNc1cc(Nc2cnc(C#N)c(O[C@H](C)CN(C)C)n2)ncc1-c1cnn(C)c1

>  <limit_sign>
=

>  <observed>
5.49

$$$$

###

# target_or_system: Kv4.3/KchIP2 (Homo sapiens, UniProt Q9NS61+Q9UK17)
# Sequence (Q9UK17 whole entry): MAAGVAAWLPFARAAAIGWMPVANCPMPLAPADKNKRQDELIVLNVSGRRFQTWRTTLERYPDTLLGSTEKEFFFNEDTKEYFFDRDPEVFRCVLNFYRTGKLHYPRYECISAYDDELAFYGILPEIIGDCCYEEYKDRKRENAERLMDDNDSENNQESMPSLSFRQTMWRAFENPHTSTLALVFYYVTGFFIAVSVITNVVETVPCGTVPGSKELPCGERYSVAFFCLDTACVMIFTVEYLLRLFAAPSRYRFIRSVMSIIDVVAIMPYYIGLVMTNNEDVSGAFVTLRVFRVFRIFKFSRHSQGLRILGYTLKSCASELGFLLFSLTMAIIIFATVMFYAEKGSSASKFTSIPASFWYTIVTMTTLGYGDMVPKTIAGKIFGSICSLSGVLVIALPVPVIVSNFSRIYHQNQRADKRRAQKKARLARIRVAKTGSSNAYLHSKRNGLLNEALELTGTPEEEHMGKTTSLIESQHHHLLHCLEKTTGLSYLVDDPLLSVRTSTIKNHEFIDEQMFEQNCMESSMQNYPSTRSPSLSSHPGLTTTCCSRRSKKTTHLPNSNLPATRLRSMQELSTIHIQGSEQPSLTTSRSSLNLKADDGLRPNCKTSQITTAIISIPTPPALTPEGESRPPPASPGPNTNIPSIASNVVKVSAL
# Sequence (Q9NS61 whole entry): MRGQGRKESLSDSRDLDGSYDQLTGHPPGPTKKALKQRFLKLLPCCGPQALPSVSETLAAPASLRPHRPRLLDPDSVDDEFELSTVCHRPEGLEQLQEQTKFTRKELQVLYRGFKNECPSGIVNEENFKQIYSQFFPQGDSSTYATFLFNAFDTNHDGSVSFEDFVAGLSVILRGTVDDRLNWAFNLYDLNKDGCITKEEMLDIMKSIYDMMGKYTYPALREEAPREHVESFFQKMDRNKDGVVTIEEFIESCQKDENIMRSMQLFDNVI
# procedure_details: Inhibition of human Kv4.3/KchIP2 at 10 uM
# Format: protein-complex assay

>  <smiles_representation>
COc1cc(Nc2cnc(C#N)c(O[C@H](C)CN(C)C)n2)ncc1-c1cnn(C)c1

>  <inhibition at 10 µM>
< 25%

$$$$

Measured values drawn from ChEMBL document CHEMBL2203133 for this set.
